# ASSAY_OVERVIEW: Cytotoxicity against human A549 cells assessed as reduction in cell viability after 48 hrs by MTT assay
# Format: cell-based
READOUT_KIND: CC50 at 48 h

CC(=O)OC[C@H]1O[C@@H](n2cc(CO)nn2)[C@H](OC(C)=O)[C@@H]1OC(C)=O	> 1000 µM
OC[C@H]1O[C@@H](n2cc(COCC(COCc3cn([C@@H]4O[C@H](CO)[C@@H](O)[C@H]4O)nn3)(COCc3cn([C@@H]4O[C@H](CO)[C@@H](O)[C@H]4O)nn3)COCc3cn([C@@H]4O[C@H](CO)[C@@H](O)[C@H]4O)nn3)nn2)[C@H](O)[C@@H]1O	> 1000 µM
OCc1cn([C@@H]2O[C@H](CO)[C@@H](O)[C@H]2O)nn1	> 1000 µM
CC(=O)OC[C@H]1O[C@@H](n2cc(COCC(COCc3cn([C@@H]4O[C@H](COC(C)=O)[C@@H](OC(C)=O)[C@H]4OC(C)=O)nn3)(COCc3cn([C@@H]4O[C@H](COC(C)=O)[C@@H](OC(C)=O)[C@H]4OC(C)=O)nn3)COCc3cn([C@@H]4O[C@H](COC(C)=O)[C@@H](OC(C)=O)[C@H]4OC(C)=O)nn3)nn2)[C@H](OC(C)=O)[C@@H]1OC(C)=O	> 1000 µM
NC(=O)c1ncn([C@@H]2O[C@H](CO)[C@@H](O)[C@H]2O)n1	307 µM
CCCCn1cc(CO[C@@H]2O[C@H](CN=[N+]=[N-])[C@H]3OC(C)(C)O[C@@H]23)nn1	525 µM
CCCCn1cc(CO[C@@H]2O[C@H](CO)[C@H]3OC(C)(C)O[C@@H]23)nn1	> 1000 µM
CC1(C)O[C@@H]2[C@H](O1)[C@@H](CO)O[C@H]2n1cc(COCC(COCc2cn([C@@H]3O[C@H](CO)[C@H]4OC(C)(C)O[C@H]43)nn2)(COCc2cn([C@@H]3O[C@H](CO)[C@H]4OC(C)(C)O[C@H]43)nn2)COCc2cn([C@@H]3O[C@H](CO)[C@H]4OC(C)(C)O[C@H]43)nn2)nn1	> 1000 µM
CCCCn1cc(CO[C@@H]2O[C@H](Cn3cc(COC[C@@H](O)[C@H](O)[C@H](O)[C@@H](O)CO)nn3)[C@H]3OC(C)(C)O[C@@H]23)nn1	> 1000 µM
CC1(C)O[C@H]2[C@H](OCc3cn(CC(Cn4cc(CO[C@@H]5O[C@H](CN=[N+]=[N-])[C@H]6OC(C)(C)O[C@@H]56)nn4)(Cn4cc(CO[C@@H]5O[C@H](CN=[N+]=[N-])[C@H]6OC(C)(C)O[C@@H]56)nn4)Cn4cc(CO[C@@H]5O[C@H](CN=[N+]=[N-])[C@H]6OC(C)(C)O[C@@H]56)nn4)nn3)O[C@H](CN=[N+]=[N-])[C@H]2O1 (stereo not given in full)	> 1000 µM

---

# ASSAY_OVERVIEW: Cytotoxicity against African green monkey Vero cells assessed as reduction in cell viability after 48 hrs by MTT assay
# Assay type: cell-based
# PARTICULARS: chlorocebus sabaeus
READOUT_KIND: CC50 at 48 h

OC1O[C@H](COCc2cn(CC(Cn3cc(COC[C@H]4OC(O)[C@H](O)[C@@H](O)[C@H]4O)nn3)(Cn3cc(COC[C@H]4OC(O)[C@H](O)[C@@H](O)[C@H]4O)nn3)Cn3cc(COC[C@H]4OC(O)[C@H](O)[C@@H](O)[C@H]4O)nn3)nn2)[C@H](O)[C@H](O)[C@H]1O (some centres not stated)	> 1000 µM
CCCCn1cc(CO[C@@H]2O[C@H](CO)[C@H]3OC(C)(C)O[C@@H]23)nn1	> 1000 µM
CC(=O)OC[C@H]1O[C@@H](n2cc(COCC(COCc3cn([C@@H]4O[C@H](COC(C)=O)[C@@H](OC(C)=O)[C@H]4OC(C)=O)nn3)(COCc3cn([C@@H]4O[C@H](COC(C)=O)[C@@H](OC(C)=O)[C@H]4OC(C)=O)nn3)COCc3cn([C@@H]4O[C@H](COC(C)=O)[C@@H](OC(C)=O)[C@H]4OC(C)=O)nn3)nn2)[C@H](OC(C)=O)[C@@H]1OC(C)=O	> 1000 µM
CCCCn1cc(CO[C@@H]2O[C@H](Cn3cc(COC[C@@H](O)[C@H](O)[C@H](O)[C@@H](O)CO)nn3)[C@H]3OC(C)(C)O[C@@H]23)nn1	> 1000 µM
CC1(C)O[C@H]2[C@H](OCc3cn(CC(Cn4cc(CO[C@@H]5O[C@H](CN=[N+]=[N-])[C@H]6OC(C)(C)O[C@@H]56)nn4)(Cn4cc(CO[C@@H]5O[C@H](CN=[N+]=[N-])[C@H]6OC(C)(C)O[C@@H]56)nn4)Cn4cc(CO[C@@H]5O[C@H](CN=[N+]=[N-])[C@H]6OC(C)(C)O[C@@H]56)nn4)nn3)O[C@H](CN=[N+]=[N-])[C@H]2O1 (some centres not stated)	> 1000 µM
CC(=O)OC[C@H]1O[C@@H](n2cc(CO)nn2)[C@H](OC(C)=O)[C@@H]1OC(C)=O	> 1000 µM
CC1(C)O[C@@H]2[C@H](O1)[C@@H](CO)O[C@H]2n1cc(COCC(COCc2cn([C@@H]3O[C@H](CO)[C@H]4OC(C)(C)O[C@H]43)nn2)(COCc2cn([C@@H]3O[C@H](CO)[C@H]4OC(C)(C)O[C@H]43)nn2)COCc2cn([C@@H]3O[C@H](CO)[C@H]4OC(C)(C)O[C@H]43)nn2)nn1	> 1000 µM
CC1(C)O[C@H]2[C@H](OCc3cn(CC(Cn4cc(CO[C@@H]5O[C@H](CO)[C@H]6OC(C)(C)O[C@@H]56)nn4)(Cn4cc(CO[C@@H]5O[C@H](CO)[C@H]6OC(C)(C)O[C@@H]56)nn4)Cn4cc(CO[C@@H]5O[C@H](CO)[C@H]6OC(C)(C)O[C@@H]56)nn4)nn3)O[C@H](CO)[C@H]2O1	233 µM
CC1(C)O[C@@H]2[C@H](O1)[C@@H](CO)O[C@H]2n1cc(CO)nn1	> 1000 µM
NC(=O)c1ncn([C@@H]2O[C@H](CO)[C@@H](O)[C@H]2O)n1	> 400 µM
OCc1cn([C@@H]2O[C@H](CO)[C@@H](O)[C@H]2O)nn1	> 1000 µM
CCCCn1cc(COC[C@H]2OC(O)[C@H](O)[C@@H](O)[C@H]2O)nn1 (some centres not stated)	> 1000 µM

---

# selectivity ratio annotations
# ASSAY_OVERVIEW: in vitro
# PARTICULARS: monkey, Vero cells
READOUT_KIND: selectivity ratio

OC1O[C@H](COCc2cn(CC(Cn3cc(COC[C@H]4OC(O)[C@H](O)[C@@H](O)[C@H]4O)nn3)(Cn3cc(COC[C@H]4OC(O)[C@H](O)[C@@H](O)[C@H]4O)nn3)Cn3cc(COC[C@H]4OC(O)[C@H](O)[C@@H](O)[C@H]4O)nn3)nn2)[C@H](O)[C@H](O)[C@H]1O (some centres not stated)	> 2.7
CC1(C)O[C@@H]2[C@H](O1)[C@@H](CO)O[C@H]2n1cc(CO)nn1	> 19.5
NC(=O)c1ncn([C@@H]2O[C@H](CO)[C@@H](O)[C@H]2O)n1	> 21.6
CCCCn1cc(COC[C@H]2OC(O)[C@H](O)[C@@H](O)[C@H]2O)nn1 (some centres not stated)	> 2.7
CCCCn1cc(CO[C@@H]2O[C@H](Cn3cc(COC[C@H]4OC(O)[C@H](O)[C@@H](O)[C@H]4O)nn3)[C@H]3OC(C)(C)O[C@@H]23)nn1 (some centres not stated)	> 45.2
CCCCn1cc(CO[C@@H]2O[C@H](Cn3cc(COC[C@@H](O)[C@H](O)[C@H](O)[C@@H](O)CO)nn3)[C@H]3OC(C)(C)O[C@@H]23)nn1	> 4.8
OCc1cn([C@@H]2O[C@H](CO)[C@@H](O)[C@H]2O)nn1	> 4.7

---

# ASSAY_OVERVIEW: Cytotoxicity against human A549 cells assessed as reduction in cell viability after 48 hrs by MTT assay
# Format: cell-based
READOUT_KIND: CC50 at 48 h

OC[C@@H](O)[C@H](O)[C@H](O)[C@@H](O)COCc1cn(CC(Cn2cc(COC[C@@H](O)[C@H](O)[C@H](O)[C@@H](O)CO)nn2)(Cn2cc(COC[C@@H](O)[C@H](O)[C@H](O)[C@@H](O)CO)nn2)Cn2cc(COC[C@@H](O)[C@H](O)[C@H](O)[C@@H](O)CO)nn2)nn1	> 1000 µM
CC1(C)O[C@H]2[C@H](OCc3cn(CC(Cn4cc(CO[C@@H]5O[C@H](CO)[C@H]6OC(C)(C)O[C@@H]56)nn4)(Cn4cc(CO[C@@H]5O[C@H](CO)[C@H]6OC(C)(C)O[C@@H]56)nn4)Cn4cc(CO[C@@H]5O[C@H](CO)[C@H]6OC(C)(C)O[C@@H]56)nn4)nn3)O[C@H](CO)[C@H]2O1	209 µM
CCCCn1cc(CO[C@@H]2O[C@H](Cn3cc(COC[C@H]4OC(O)[C@H](O)[C@@H](O)[C@H]4O)nn3)[C@H]3OC(C)(C)O[C@@H]23)nn1 (some centres undefined)	> 1000 µM
CC1(C)O[C@@H]2[C@H](O1)[C@@H](CO)O[C@H]2n1cc(CO)nn1	> 1000 µM
